Assay: Solubility in fasted-state simulated colonic fluid (FaSSCoF) at pH 6.5
Format: physicochemical
Conditions: fasted-state simulated colonic fluid (FaSSCoF), 25 °C, pH 6.5, fassgf or other biorelevant, thermodynamic from solid, pH 6.5, 25° C., Run 1, read-out: pH 6.5 FaSSCoF Solubility Run 1
Procedure: The solubilities of compounds of the invention in FaSSCoF at pH 6.5 are determined using a modification of a previously-reported procedure (Vertzoni, M., et al. Pharm. Res. 2010, 27, 2187-2196). […] Solubility Determination: Test compounds are suspended in the pH 6.5 FaSSCoF medium to give a maximum final concentration of 2-10 mg/mL. […] The filtrates are then diluted as appropriate for injection and quantification by HPLC with reference to a standard. […]
Assign criterion met to entries whose solubility thermodynamic at 24 h meets or exceeds 1000 µg/mL; assign criterion not met to the rest.

Field: example entries. Status: answers known.
Challenge: Could you please find out whether `COc1cc(Nc2nccc(Oc3ccc(NC(=O)Nc4cc(C(C)(C)C)cc(NS(C)(=O)=O)c4OC)c4ccccc34)n2)cc(OCCOCCOCC(=O)O)c1` has solubility thermodynamic at 24 h that meets 1000 µg/mL or exceeds it?
Response given: criterion not met

Challenge: Quick check: does COc1cc(Nc2cc(Oc3ccc(NC(=O)Nc4cc(C(C)(C)C)cc([S+](C)[O-])c4OC)c4ccccc34)ccn2)cc(OCCOCCOCC(=O)O)c1 (centres unmarked) have solubility thermodynamic at 24 h greater than or equal to 1000 µg/mL?
Response given: criterion met

Challenge: Check this molecule for solubility thermodynamic at 24 h at or above 1000 µg/mL: `COc1cc(Nc2cc(Oc3ccc(NC(=O)Nc4cc(C(C)(C)C)on4)c4ccccc34)ccn2)cc(OCCOCCOCC(=O)O)c1`
Response given: criterion met

Challenge: Does the reported solubility thermodynamic at 24 h for COc1cc(Nc2cc(Oc3ccc(NC(=O)Nc4cc(C(C)(C)C)cc(NS(C)(=O)=O)c4OC)c4ccccc34)ccn2)cc(OCCOCCOC(C)C(=O)O)c1 (centres unmarked) [Example 14] fall at or above the 1000 µg/mL mark?
Response given: criterion met

Continuing:
Challenge: Answer whether solubility thermodynamic at 24 h of `COc1cc(Nc2cc(Oc3ccc(NC(=O)Nc4cc(C(C)(C)C)cc(NS(C)(=O)=O)c4OC)c4ccccc34)ccn2)cc(OCCOCCOCC(=O)O)c1` is greater than or equal to 1000 µg/mL.
Response given: criterion not met
